details: buffer; pH 7.4; 200.0 µM
readout type: solubility kinetic

Study these solved cases before continuing.
• COc1ccccc1Nc1ccc2nonc2c1[N+](=O)[O-] = 2 µg/mL
• CC(NC(=O)Cc1ccsc1)c1ccc(Cl)cc1Cl (stereo not drawn) = 3.8 µg/mL
• COc1ccc(C2(c3ccc(OC)cc3)NC(=O)N(CC(=O)NC3CCS(=O)(=O)C3)C2=O)cc1 (stereo not drawn) = > 73.1 µg/mL
• COc1ccc(OC)c(CN2CCCCCC2)c1.O=C(O)C(=O)O = 48.2 µg/mL
• COc1ccccc1CCNC1CCCCCC1 = > 37.1 µg/mL
• COc1ccc(CCNC(=O)COC(=O)/C=C/c2ccc3c(c2)OCO3)cc1OC = 12.7 µg/mL

[ask] Which solubility kinetic value is on record for C=CCN1C(=O)C(=O)N(CC(=O)NCC(=O)Nc2ccc(F)c(F)c2F)C1=O ?
[reply] > 59.7 µg/mL

[ask] // lookup solubility kinetic for CCOC(=O)c1cc(C#N)c(SCC(N)=O)[nH]c1=O
[reply] > 42.2 µg/mL

----------
conditions: buffer; pH 7.4; 200.0 µM
This section presents compounds with their documented solubility kinetic values.

// solved cases for solubility kinetic follow
• O=C(COc1ccc(C(=O)c2ccc(F)cc2)cc1)Nc1cccc(S(=O)(=O)N2CCOCC2)c1 = 4.2 µg/mL
• CCS(=O)(=O)N1CCC(C(=O)Oc2ccccc2Cl)CC1 = 46 µg/mL
• CC1CC(C)(C)NC(=S)N1CC(=O)NCc1ccc(F)cc1 (centres undefined) = 41.5 µg/mL
• Cc1ccccc1NC(=O)N1CCc2ccccc2C1 = > 40 µg/mL
• O=C(COC(=O)c1ccc(Cl)c([N+](=O)[O-])c1)NC1CCCC1 = 7.6 µg/mL
• NS(=O)(=O)c1ccc(CCNC(=O)c2ccc(=O)[nH]c2)cc1 = > 48.2 µg/mL
• COc1ccc(NC(=O)N2CCCC2C(=O)NC2CCCC2)cc1 (centres undefined) = > 49.7 µg/mL
• Cc1c(C)n(CCc2ccccc2)c2ncnc(NCCO)c12 = > 46.6 µg/mL

[ask] So what's the measured solubility kinetic for this one? Fc1ccc(N2CCN(c3cnc4ccccc4n3)CC2)cc1
[reply] 1 µg/mL

----------
Below, each entry is listed alongside its reported solubility kinetic.
details: buffer; pH 7.4; 200.0 µM
Numeric only. Scale: µg/mL

Some compounds with known solubility kinetic results, for comparison:
- CC(C)(C)S(=O)(=O)c1cnc(N2CCOCC2)nc1N: 32.8
- COCc1cc(C)nc(SCc2ccc(Cl)cc2)c1C#N: 0.8
- CC(=O)c1ccc(OC(=O)CCNC(=O)c2ccccc2)cc1: 27.6
- Cc1ccc(NCCC(=O)c2cccc([N+](=O)[O-])c2)c(C)c1: 1.7
- CCOc1ncccc1C(=O)OC(C)C(=O)Nc1ccc(N2CCOCC2)cc1 (stereo not given): 27.5

[ask] # get_value(readout='solubility kinetic', item= O=S(=O)(c1ccc(Cl)nc1)N1CCC(Cc2ccccc2)CC1 )
[reply] 2.5

[ask] Which value of solubility kinetic has been reported for CCOCCCNC(=O)c1cc2c(=O)n3cccc(C)c3nc2s1 in the records?
[reply] 4.1

----------
conditions: buffer; pH 7.4; 200.0 µM
Binary classification by solubility kinetic, with 30 µg/mL as an inclusive lower bound for True; all other cases are False.

Answered cases to consult:
* O=C1CCC(=O)N1OCCOc1ccccc1 | True
* COc1cc2c(cc1OC)CN(C1CCC(C)CC1)CC2 (centres undefined) | True
* O=C(CN1c2cccc3cccc(c23)S1(=O)=O)Nc1ccc(F)c(F)c1F | False
* COc1ccccc1NC(=O)COC(=O)c1oc2ccccc2c1C | False
* O=C(CSc1ccc(-c2ccc(F)cc2)nn1)N1CCOCC1 | True

[ask] I'd appreciate it if you could say whether COc1ccc(C(C)=O)cc1CN1CC=C(c2ccccc2)CC1 has solubility kinetic at least equal to 30 µg/mL.
[reply] False
